conditions: human gut metagenome, 24 h, 2 µM; also: call rule not given here
READOUT NAME: Bacterial Biotransformation

Check out these entries, answers already filled in.
[
  {
    "COMPOUND": "Cc1ccccc1N1C(=O)c2cc(S(N)(=O)=O)c(Cl)cc2NC1C (stereo unspecified)",
    "Bacterial Biotransformation": "Compound NOT metabolized"
  },
  {
    "COMPOUND": "CN(C(=O)CN(CCO)CC(=O)N(C)C(C)(C)Cc1ccccc1)C(C)(C)Cc1ccccc1",
    "Bacterial Biotransformation": "Compound metabolized"
  },
  {
    "COMPOUND": "Nc1c2c(nc3ccccc13)CCCC2",
    "Bacterial Biotransformation": "Compound metabolized"
  },
  {
    "COMPOUND": "C=CCN1CC[C@]23c4c5ccc(O)c4O[C@H]2C(=O)CC[C@@]3(O)[C@H]1C5",
    "Bacterial Biotransformation": "Compound NOT metabolized"
  },
  {
    "COMPOUND": "CC(C)c1c(C(=O)Nc2ccccc2)c(-c2ccccc2)c(-c2ccc(F)cc2)n1CC[C@@H](O)C[C@@H](O)CC(=O)O",
    "Bacterial Biotransformation": "Compound metabolized"
  },
  {
    "COMPOUND": "CCc1nn(CCCN2CCN(c3cccc(Cl)c3)CC2)c(=O)n1CCOc1ccccc1",
    "Bacterial Biotransformation": "Compound metabolized"
  },
  {
    "COMPOUND": "C[C@@H](CO)NC(=O)[C@@H]1C=C2c3cccc4[nH]cc(c34)C[C@H]2N(C)C1.O=C(O)/C=C\\C(=O)O [ERGONOVINE MALEATE]",
    "Bacterial Biotransformation": "Compound metabolized"
  },
  {
    "COMPOUND": "CC(C)NCC(O)c1ccc(NS(C)(=O)=O)cc1 (stereo unspecified)",
    "Bacterial Biotransformation": "Compound NOT metabolized"
  }
]

Please look at the following compound next.
CNS(=O)(=O)Cc1ccc2[nH]cc(CCN(C)C)c2c1.O=C(O)CCC(=O)O [SUMATRIPTAN SUCCINATE] yielded Bacterial Biotransformation of Compound metabolized
